tested on: ECO-2: E. coli 2219#; assay: Drug sensitivity of clinical isolated strain; format: cell-based, Escherichia coli; conditions: ECO-2 (Table 3); note: key: R: resistant; S: sensitive
valueKind: Drug sensitivity

Below: 5 compounds and their reported Drug sensitivity.
{"columns": ["compound", "valueKind", "resultValue"],
 "data": [
  ["C[C@H]1COc2c(N3CCN(C)CC3)c(F)cc3c(=O)c(C(=O)O)cn1c23", "Drug sensitivity", "R"],
  ["CCN1CCN(C(=O)N[C@@H](C(=O)N[C@@H]2C(=O)N3[C@@H]2SC(C)(C)[C@@H]3C(=O)O)c2ccccc2)C(=O)C1=O", "Drug sensitivity", "R"],
  ["C[C@]1(Cn2ccnn2)[C@H](C(=O)O)N2C(=O)C[C@H]2S1(=O)=O", "Drug sensitivity", "R/S"],
  ["CC1(C)S[C@@H]2[C@H](NC(=O)[C@H](N)c3ccccc3)C(=O)N2[C@H]1C(=O)O", "Drug sensitivity", "R"],
  ["C[C@@H](O)[C@H]1C(=O)N2C(C(=O)O)=C(S[C@@H]3CN[C@H](C(=O)N(C)C)C3)[C@H](C)[C@H]12", "Drug sensitivity", "S"]
]}

Query: Could you tell me which Drug sensitivity is on file for CO/N=C(\C(=O)N[C@@H]1C(=O)N2C(C(=O)[O-])=C(C[N+]3(C)CCCC3)CS[C@H]12)c1csc(N)n1 [Cefepime] ?
Response: R

Query: Cool, now O=C(N[C@H](CO)[C@H](O)c1ccc([N+](=O)[O-])cc1)C(Cl)Cl
Response: S
